Assayed system: T1, recombinant human KLK5 C-6His (Novoprotein, Catalog No. C415) (human, UniProt Q9Y337 23-293)
T1 construct: Bought protein; also called KLK5 protein (Novoprotein); not shown: C-terminal 6xHis tag ('C-6His')
Measurement notes: ELISA on captured KLK5 C-6His; binder incubated in human serum, day 1
Quantity: EC50 (nM)
Report the value in nM with no unit label.

Here's what some known entries look like.
Binder | Quantity | Unit text | Experimental value
Spink9-112.K62G.Fc (SEQ ID NO: 56) (Fc fusion, Mutant SPINK9 domain fused directly to a C-terminal IgG Fc) IECAKQTKQMVDCSHYKKLPPEQELYCTREYDPICGSDGKTYGNDCFFCSKVKKTDGTLKFVHFGKCEPKSCDKTHTCPPCPAPEAAGGPSVFLFPPKPKDTLMISRTPEVTCVVVDVSHEDPEVKFNWYVDGVEVHNAKTKPREEQYNSTYRVVSVLTVLHQDWLNGKEYKCKVSNKALPAPIEKTISKAKGQPREPQVYTLPPSREEMTKNQVSLTCLVKGFYPSDIAVEWESNGQPENNYKTTPPVLDSDGSFFLYSKLTVDKSRWQQGNVFSCSVLHEALHSHYTQKSLSLSPGK | EC50 | nM | 0.14
Spink9-183.Fc (SEQ ID NO: 57) (Fc fusion, Mutant SPINK9 domain fused directly to a C-terminal IgG Fc) IECAKQTKQMVDCSHYKKLPPQQQAYCTRDYDPICGSDGKTYKNDCFFCSKVKKTDGTLKFVHFGKCEPKSCDKTHTCPPCPAPEAAGGPSVFLFPPKPKDTLMISRTPEVTCVVVDVSHEDPEVKFNWYVDGVEVHNAKTKPREEQYNSTYRVVSVLTVLHQDWLNGKEYKCKVSNKALPAPIEKTISKAKGQPREPQVYTLPPSREEMTKNQVSLTCLVKGFYPSDIAVEWESNGQPENNYKTTPPVLDSDGSFFLYSKLTVDKSRWQQGNVFSCSVLHEALHSHYTQKSLSLSPGK | EC50 | nM | 0.09
Spink9-30.Fc (SEQ ID NO: 55) (Fc fusion, Mutant SPINK9 domain fused directly to a C-terminal IgG Fc) IECAKQTKQMVDCSHYKKLPPEQVSWCTREYDPICGSDGKTYKNDCFFCSKVKKTDGTLKFVHFGKCEPKSCDKTHTCPPCPAPEAAGGPSVFLFPPKPKDTLMISRTPEVTCVVVDVSHEDPEVKFNWYVDGVEVHNAKTKPREEQYNSTYRVVSVLTVLHQDWLNGKEYKCKVSNKALPAPIEKTISKAKGQPREPQVYTLPPSREEMTKNQVSLTCLVKGFYPSDIAVEWESNGQPENNYKTTPPVLDSDGSFFLYSKLTVDKSRWQQGNVFSCSVLHEALHSHYTQKSLSLSPGK | EC50 | nM | 0.1

Ask: Entry Spink9-236.Fc (SEQ ID NO: 60) (Fc fusion, Mutant SPINK9 domain fused directly to a C-terminal IgG Fc) IECAKQTKQMVDCSHYKKLPPEQQLMCTREYDPICGSDGKTYKNDCFFCSKVKKTDGTLKFVHFGKCEPKSCDKTHTCPPCPAPEAAGGPSVFLFPPKPKDTLMISRTPEVTCVVVDVSHEDPEVKFNWYVDGVEVHNAKTKPREEQYNSTYRVVSVLTVLHQDWLNGKEYKCKVSNKALPAPIEKTISKAKGQPREPQVYTLPPSREEMTKNQVSLTCLVKGFYPSDIAVEWESNGQPENNYKTTPPVLDSDGSFFLYSKLTVDKSRWQQGNVFSCSVLHEALHSHYTQKSLSLSPGK has what EC50?
Result: 0.08

Ask: Entry Spink9-186.Fc (SEQ ID NO: 58) (Fc fusion, Mutant SPINK9 domain fused directly to a C-terminal IgG Fc) IECAKQTKQMVDCSHYKKLPPAQLIYCTKEYDPICGSDGKTYKNDCFFCSKVKKTDGTLKFVHFGKCEPKSCDKTHTCPPCPAPEAAGGPSVFLFPPKPKDTLMISRTPEVTCVVVDVSHEDPEVKFNWYVDGVEVHNAKTKPREEQYNSTYRVVSVLTVLHQDWLNGKEYKCKVSNKALPAPIEKTISKAKGQPREPQVYTLPPSREEMTKNQVSLTCLVKGFYPSDIAVEWESNGQPENNYKTTPPVLDSDGSFFLYSKLTVDKSRWQQGNVFSCSVLHEALHSHYTQKSLSLSPGK please
Result: 0.16
